Where do these numbers come from? They come from the nanobody polyreactivity screen of Harvey et al. (2022).

procedure-summary: yeast display, Sf9 membrane polyspecificity reagent, FACS + sequencing; frameworks hold sequencing errors
quantity-kind: polyreactivity (PSR sort gate)

Check out these entries, answers already filled in.
QVQLQESGGGLVQAGGSLRLSCAASGSIVVSVTMGWYRKAPGKESELVASIGRGSTTNHADSVKGRFTISRDNAKNIVDLLLNSLKPEDNAVYYCAALESYGKYHGYWGEGTQVTVSS low polyreactivity
QVQLVESGGGLVQAGGSLRLSCAASGSTFDDNDMGWYRQAPGKERELVAAISWSGGSTTYADSVKGRFTISRDYAKNTVYLQMNSLKPEDTAVYYCAADWYYWGFIFDYWGQGTQVTVSS high polyreactivity
QVQLVESGGGLVQAGGSLRLSCAGSGSTFKYYAMGWYRQAPGKARELVAAIRTSGGRTYYADSVKGRFTISRDNAKNTVYLPMNSLKPEDTAVYYCNASSTQFGQRYEYWGQGTQVTVSS high polyreactivity
QVQLVESGGGLVQAGGSLRLSCAASGFTFRYYAMGWYRQAPGKERELVAAITSGDSTYYADSVKGRFTISRDKAKNTVYLQMNSLKPEDTAVYYCAAYSWLYEGYEYWGQGTQVTVSS high polyreactivity
QVQIVESGGGLVQARGSLRLSCAAYGRIIYRYAMGWYRQAPGKERELVAAISASGRTYYADSVKGRFTISRDNAKNTVYLQMNSLKPADTAVYYCAKVAAGSLGSWGQGTQVTVSS high polyreactivity
QVQLVESGGGLVQAGGSLRLSCAASGSIFPAYAMGWYRQAPGKERELVAAITFSGGRTYYADSVKGRFTISRDNAKNTVYLQMNSLKPEDTAVYYCAAYGAPSGTGAKYGYWGQGTQVTVSS low polyreactivity
QVQLVESGGGLVQAGGSLRLSCAASGYTFNIYAMGWYRQAPGKERELVAAITSRGGGTYYADSVKGRFTISRDNAKNTVYLQMNSLKPEDTAVYYCAADVYSYYHWYTHYDYWGQGTQVTVSS high polyreactivity
QVQLVESGGGLVQAGGSLRLSCAASGRIFNQYGMGWYRQAPGQEMELVAAIRSGDSTNYADSVKGRFTISRDNAKNTVYLQMNSLKPEVTAVYYCARDRPGDYAGYDYWGQGTEVTVSS low polyreactivity
QFQLVESGGGLDQAVGSLRLSCAASGSIFYPNVMGGYREAPGKEREMVAAIRTSGGSTYYADSVQGRFTISRETAKNTVYLQMNSLKPEDTAVYYCAAKRTGNGYPRSGYYRYEYWGHGTQVTVSS high polyreactivity
QVQLVESGGGLVQAGGSLRLSCAASGLTIQRNDMGWYRQAPGKEREFVATITSNAGSTYYADSVKGRFTISRDNAKNTVYLQMNSLKPEDTAVYYCARERWWGGSDYWGQGTQVTVSS high polyreactivity

Then there is this sequence:
// `QVQLVESGGGLVQAGGSLRLRCAASGYTFRGNAMAWYSQAPGKERDLVAGISQTGGNTYYADSVKGRFTISRDNAKNTVYLQMNSLKPEDTAVYYCATTRRPYVRGYPHYYWGQGTEVTVSS` : polyreactivity (PSR sort gate) value = high polyreactivity

###

procedure-summary: yeast display, Sf9 membrane polyspecificity reagent, FACS + sequencing; frameworks hold sequencing errors
quantity-kind: polyreactivity (PSR sort gate)

Solved cases below.
QVQLVESGGGLVQAGGSLRLSCAASGGTLSYYAMGWYRQAPGKERELVAGISRRGGSTYYADSVKGRFTISRDNAKNTVYLQMNSLNPEDTAVYYCAADSNRHYYYWGQGTQVTVSS high polyreactivity
QVQLVDSGGGLVQAGGSLRLSCAASGINFQGNAMGWYRQAPGKERELVASITAGGDTTYYADSVKGRFTISRDNAKNTVYLQMNSLKPEDTAVYYCAVDSWLDADDSYPDSILVDYWGQGTQVTVSS low polyreactivity
QVQLVESGGGLVQAGGSLRLSCAASGRIFAYYSMGWYRQAPGKERELVAAISRSGVSTYYADSVKGRFTISRDNAKNTVYLLMNSLKPEDTAVYYCAARWRSGFTSGDFWGQGTQVTVSS low polyreactivity
QVQLVESGGGLVQAGGSLRLSCAASGSIFTTNAMGWYRQAPGKERELVAAISSRGTSTYYADSVKGRFTISRDNAKNTVYLQMNSLKPEDTAVYYCPNPYGYWGQGTQVTVSS high polyreactivity
QVQLVESGGGLDQAGGSLRLSCAASGSTFDWYTMGWNRQAPGKERELVAAISSGGRTYYADSVKGRFTISRDNAKNTVYLQMNSLKPEDTAVYYCAVAWRVGITKYGYWGQGTQVTVSS high polyreactivity
HAQLQESGVGLVQAGGSLRRSCAASGSIFRFSGMGWYRRAPGKERELVASIGFGSITYYADRVKGRFTISRDNANNTEYLQMNSLKPEDTAVYYCAVQVQDESWLDYWGQGTQVTVSC low polyreactivity
QVQLVESGGGLVQAGVSLRLSSAASGSTFLYYAMGWYRQAPGKESEMVAAIDWSDTSTYFADSVKGRFTISRDIAKNTVYLQMNSLKTEDTAVYYCIREATYVYAAGYDYWGQGTQVTVSS low polyreactivity
QVQLVESGGGLVQAGGSLRLSCAASGSTFYDYAMGWYRQAPGKERELVASISISGGSTYADSVKGRFTISRDNAKNTVYLQMNSLKPEDTAVYYCNAKNYSWDDYYWVPDYEYWGQGTQVTVSS low polyreactivity
QVQLVESGGGLVQAGGSLRLSCAASGRTFPFYAMGWYRQAPGKERELVAAISISGGSTYYADSVKGRFTISRDNAKNTVYLLMNSLKPEDTAVYYCATDGLYLSWQYSWEELYYWGQGTQVTVSS high polyreactivity
QLQLVESGGGLVQAGGSLRLSCAASGSTASINAMGWYRQAPGKERELVADISTNGDSTSYADSVKGRFTISRDNAKNTVYLQMNSLKPEDTAVYYCNAVPHIYAEGTAYKYWGQGTQETVSS low polyreactivity

Query sequence follows.
For `QVQLVESGGGLVQAGGSLRLSCAASGYIFRGYVMGWYRQAPGKERELVAAITSRGDSTYYADSVKGRFTISRDNAKNTVYLQMNSLKPEDTAVYYCNAVHYYVEYDYWGQGTQVTVSS` the sequence record lists polyreactivity (PSR sort gate) as high polyreactivity
